Quick list: ALP per entry.
Species on record: Rattus norvegicus
testDescription: Open TG-GATES - Regimen: Single
Assay type: toxicity, organism-based, Sprague-Dawley
Parameters: regimen Single, gender Male, age 6 weeks
statedConditions: in vivo, po, 30 mg/kg, 24 h, tissue Plasma, route gavage, dose level Middle
Number only, in IU/L; omit the unit.

Known results for molecules:
molecule | outputUnit | measured
CC1=C(/C=C/C(C)=C/C=C/C(C)=C/CO)C(C)(C)CCC1 [RETINOL] | IU/L | 1811.2
CN(C)CCCN1c2ccccc2CCc2ccc(Cl)cc21 [CLOMIPRAMINE] | IU/L | 2253

### Prompt Look at this molecule and give its reported ALP. CN(C)CCN(Cc1cccs1)c1ccccn1
### Response 1883

### Prompt Repeat with CN(C)CCCN1c2ccccc2CCc2ccccc21 [IMIPRAMINE]
### Response 1509.8

* * *

Species: Rattus norvegicus
testDescription: Open TG-GATES - Regimen: Daily Repeat
Type: toxicity, organism-based, Sprague-Dawley
Set-up: regimen Daily Repeat, gender Male, age 6 weeks
statedConditions: in vivo, po, 1000 mg/kg, […], tissue Blood, route gavage, dose level High, time 28 day
Reported Fbg is given for each of the following compounds.
Expressed in mg/dL, but write only the number.

Below, 5 compounds whose answers are already recorded.
compound | measuredEndpoint | measured
CCOc1ccc(NC(=O)CC(C)O)cc1 (stereo unspecified) | Fbg | 278.2
COc1ccc2[nH]c([S+]([O-])Cc3ncc(C)c(OC)c3C)nc2c1 (stereo unspecified) | Fbg | 196.8
CCOC(=O)CCC(=O)O[C@H]1[C@H](O[C@@H]2[C@@H](C)[C@H](O[C@H]3C[C@@](C)(OC)[C@@H](O)[C@H](C)O3)[C@@H](C)C(=O)O[C@H](CC)[C@@](C)(O)[C@H](O)[C@@H](C)C(=O)[C@H](C)C[C@@]2(C)O)O[C@H](C)C[C@@H]1N(C)C [ERYTHROMYCIN ETHYLSUCCINATE] | Fbg | 340.4
CC(C)OC(=O)C(C)(C)Oc1ccc(C(=O)c2ccc(Cl)cc2)cc1 [FENOFIBRATE] | Fbg | 194.2
NC(N)=Nc1nc(CSCCC(N)=NS(N)(=O)=O)cs1 | Fbg | 222.2

Proceed to the following item.
### Prompt Reported Fbg, compound COC1=CC(=O)C[C@@H](C)[C@]12Oc1c(Cl)c(OC)cc(OC)c1C2=O : ____
### Response 230.8

* * *

Species: Rattus norvegicus
testDescription: Open TG-GATES - Regimen: Single
Assay type: toxicity, organism-based, Sprague-Dawley
Set-up: regimen Single, gender Male, age 6 weeks
statedConditions: in vivo, po, 0 mg/kg, 3 h, tissue Plasma, route gavage, dose level Control
measuredEndpoint: TC

compound | TC
CN(C)CCCN1c2ccccc2CCc2ccccc21 | 84 mg/dL
O=C(CCCN1CCC(O)(c2ccc(Cl)cc2)CC1)c1ccc(F)cc1 | 82.8 mg/dL
CC/C(=C(\c1ccccc1)c1ccc(OCCN(C)C)cc1)c1ccccc1 | 86.4 mg/dL
NNC(=O)c1ccncc1 | 80.8 mg/dL
CC(C)OC(=O)C(C)(C)Oc1ccc(C(=O)c2ccc(Cl)cc2)cc1 [FENOFIBRATE] | 77 mg/dL

### Prompt Given CN1C(=O)CN=C(c2ccccc2)c2cc(Cl)ccc21 , state its recorded TC.
### Response 71 mg/dL

### Prompt Request: CCOC(=O)CCC(=O)O[C@H]1[C@H](O[C@@H]2[C@@H](C)[C@H](O[C@H]3C[C@@](C)(OC)[C@@H](O)[C@H](C)O3)[C@@H](C)C(=O)O[C@H](CC)[C@@](C)(O)[C@H](O)[C@@H](C)C(=O)[C@H](C)C[C@@]2(C)O)O[C@H](C)C[C@@H]1N(C)C [ERYTHROMYCIN ETHYLSUCCINATE]
### Response 84.8 mg/dL

### Prompt How about this compound: CN(C)CCCN1c2ccccc2CCc2ccc(Cl)cc21
### Response 75.4 mg/dL

### Prompt And then CCCNC(=O)NS(=O)(=O)c1ccc(Cl)cc1 [CHLORPROPAMIDE] , what is it?
### Response 80.2 mg/dL

* * *

Organism: Rattus norvegicus
testDescription: Open TG-GATES - Regimen: Single
Type: toxicity, organism-based, Sprague-Dawley
Set-up: regimen Single, gender Male, age 6 weeks
statedConditions: in vivo, po, 0 mg/kg, 3 h, route gavage, dose level Control
measuredEndpoint: TERMINAL_BW (g)
The reply should contain only the number, in g.

molecule | measuredEndpoint | outputUnit | measured
CC/C(=C(\c1ccccc1)c1ccc(OCCN(C)C)cc1)c1ccccc1 | TERMINAL_BW | g | 194.3
COc1ccc2[nH]c([S+]([O-])Cc3ncc(C)c(OC)c3C)nc2c1 (stereo not drawn) | TERMINAL_BW | g | 218.5

### Prompt Name the reported TERMINAL_BW value associated with the molecule COC1=CC(=O)C[C@@H](C)[C@]12Oc1c(Cl)c(OC)cc(OC)c1C2=O
### Response 211.3

### Prompt Cool, now CCOC(=O)CCC(=O)O[C@H]1[C@H](O[C@@H]2[C@@H](C)[C@H](O[C@H]3C[C@@](C)(OC)[C@@H](O)[C@H](C)O3)[C@@H](C)C(=O)O[C@H](CC)[C@@](C)(O)[C@H](O)[C@@H](C)C(=O)[C@H](C)C[C@@]2(C)O)O[C@H](C)C[C@@H]1N(C)C [ERYTHROMYCIN ETHYLSUCCINATE]
### Response 215

### Prompt // query: Cc1ccc(C)c(OCCCC(C)(C)C(=O)O)c1
### Response 223.7

### Prompt Another molecule to check: CN1C(=O)CN=C(c2ccccc2)c2cc(Cl)ccc21
### Response 214.4

### Prompt Next molecule up: NNC(=O)c1ccncc1
### Response 225.5

### Prompt Note, next up: CCCNC(=O)NS(=O)(=O)c1ccc(Cl)cc1 [CHLORPROPAMIDE]
### Response 199.1

* * *

Species: Rattus norvegicus
testDescription: Open TG-GATES - Regimen: Single
Type: toxicity, organism-based, Sprague-Dawley
Design: regimen Single, gender Male, age 6 weeks
statedConditions: in vivo, po, 30 mg/kg, 3 h, tissue Blood, route gavage, dose level Middle
measuredEndpoint: Fbg (mg/dL)
Quick note: give the figure in mg/dL, leave out the unit.

compound | outputUnit | Fbg
CC1=C(/C=C/C(C)=C/C=C/C(C)=C/CO)C(C)(C)CCC1 [RETINOL] | mg/dL | 295.2

### Prompt Look at this compound and give its reported Fbg. CN(C)CCN(Cc1cccs1)c1ccccn1
### Response 308.2

### Prompt Now the same for CN(C)CCCN1c2ccccc2CCc2ccc(Cl)cc21 [CLOMIPRAMINE]
### Response 254

### Prompt How about this compound: CN(C)CCCN1c2ccccc2CCc2ccccc21 [IMIPRAMINE]
### Response 313

* * *

Organism: Rattus norvegicus
testDescription: Open TG-GATES - Regimen: Daily Repeat
Format: toxicity, organism-based, Sprague-Dawley
Parameters: regimen Daily Repeat, gender Male, age 6 weeks
statedConditions: in vivo, po, 1000 mg/kg, […], tissue Blood, route gavage, dose level High, time 14 day
measuredEndpoint: PT (s)
Your answer should be a plain number; it is taken to be in s.

Worked cases, PT given:
compound | measuredEndpoint | outputUnit | measured
NC(N)=Nc1nc(CSCCC(N)=NS(N)(=O)=O)cs1 | PT | s | 12.5
CCOc1ccc(NC(=O)CC(C)O)cc1 (stereo not given) | PT | s | 14.3
COC1=CC(=O)C[C@@H](C)[C@]12Oc1c(Cl)c(OC)cc(OC)c1C2=O | PT | s | 12.6
COc1ccc2[nH]c([S+]([O-])Cc3ncc(C)c(OC)c3C)nc2c1 (stereo not given) | PT | s | 12.7

### Prompt # get_value(readout='PT', item= CCOC(=O)CCC(=O)O[C@H]1[C@H](O[C@@H]2[C@@H](C)[C@H](O[C@H]3C[C@@](C)(OC)[C@@H](O)[C@H](C)O3)[C@@H](C)C(=O)O[C@H](CC)[C@@](C)(O)[C@H](O)[C@@H](C)C(=O)[C@H](C)C[C@@]2(C)O)O[C@H](C)C[C@@H]1N(C)C [ERYTHROMYCIN ETHYLSUCCINATE] )
### Response 16.2

* * *

Organism: Rattus norvegicus
testDescription: Open TG-GATES - Regimen: Daily Repeat
Assay type: toxicity, organism-based, Sprague-Dawley
Set-up: regimen Daily Repeat, gender Male, age 6 weeks
statedConditions: in vivo, po, 0 mg/kg, […], tissue Plasma, route gavage, dose level Control, time 7 day
A/G values by entry

Below, each entry is followed by its recorded A/G result.
compound | measuredEndpoint | measured
CCOc1ccc(NC(=O)CC(C)O)cc1 (stereo not drawn) [BUCETIN] | A/G | 0.8
COC1=CC(=O)C[C@@H](C)[C@]12Oc1c(Cl)c(OC)cc(OC)c1C2=O [GRISEOFULVIN] | A/G | 1.6
CC1=C(/C=C/C(C)=C/C=C/C(C)=C/CO)C(C)(C)CCC1 [RETINOL] | A/G | 1.3
NC(N)=Nc1nc(CSCCC(N)=NS(N)(=O)=O)cs1 [FAMOTIDINE] | A/G | 1.5
CCCNC(=O)NS(=O)(=O)c1ccc(Cl)cc1 [CHLORPROPAMIDE] | A/G | 0.8
CN(C)CCN(Cc1cccs1)c1ccccn1 | A/G | 1.2
CCOC(=O)CCC(=O)O[C@H]1[C@H](O[C@@H]2[C@@H](C)[C@H](O[C@H]3C[C@@](C)(OC)[C@@H](O)[C@H](C)O3)[C@@H](C)C(=O)O[C@H](CC)[C@@](C)(O)[C@H](O)[C@@H](C)C(=O)[C@H](C)C[C@@]2(C)O)O[C@H](C)C[C@@H]1N(C)C [ERYTHROMYCIN ETHYLSUCCINATE] | A/G | 1.1

Turning now to a further compound:
### Prompt Report A/G for NNC(=O)c1ccncc1 [ISONIAZID] please.
### Response 1.7

Provenance of the data: ChEMBL document CHEMBL3885861
